Origin of measurements: the supplement of paper PMC12042874

test: amyloid nucleation score (Sup35N fusion, yeast selection) (log enrichment); library NNK3; higher = more nucleation; inactive = no reads after selection;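 also: zero at mode of non-aggregating sequences after 7 days selection at 30°C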
Quantity Kind: amyloid nucleation score

Known amyloid nucleation score results, listed for orientation:
Substance	amyloid nucleation score
RVHLGGMYRWVCEVNV	inactive
RYTFGTAIERVLQVILNEMT	inactive
FIVSNYKSFVLYHLLNRMLV	inactive
VLDVFKGIW	inactive
MVFQYRYFSLLLVWSNCSGA	inactive

Shift focus to the following entry.
Entry `LNAMWAWSRLDCNWGIQRNR` — recorded amyloid nucleation score = inactive

---

test: amyloid nucleation score (Sup35N fusion, yeast selection) (log enrichment); library NNK2; higher = more nucleation; inactive = no reads after selection
Response key: Met means amyloid nucleation score >= 0.4; Not met means amyloid nucleation score < 0.4.

Substance	Category Label
MLSRNNCNALWYSIFS	Not met
WCLMQSFDGLSDME	Met
HLTVFVDLSVRLRQMYRRYS	Met
STWDESWLHVLRWREFATLQ	Met
YLLSMVRKDPVSRVSLKKGW	Met

Determine whether measured amyloid nucleation score meets or exceeds 0.4 for `LLHLQYHLFMLCTVVNPHLL`
Not met

Determine whether measured amyloid nucleation score meets or exceeds 0.4 for `ILGSARYIVCGQVSEMRSAG`
Not met

---

test: amyloid nucleation score (Sup35N fusion, yeast selection) (log enrichment); library NNK2; higher = more nucleation; inactive = no reads after selection
Quantity Kind: amyloid nucleation score

Known amyloid nucleation score results, listed for orientation:
Substance	Value Observed
FTEFPNFNDMSDRVV	-0.92
NWGNDSMRRPCCG	2
FTIIGAAIKRVVVLTVSPYY	inactive
ESFLDINGVLRLRRLYVQSQ	0.587
AHQHWQRGFEEHPEIRFIHW	4.29

Entry `CLYCVMASQWGCFGLVESVT` — recorded amyloid nucleation score = 1.73

Entry `YTVFSTESPCWISQSKLRLA` — recorded amyloid nucleation score = -0.825

Entry `FSSSYCNVYYWFYMFFHWG` — recorded amyloid nucleation score = 1.25

Entry `YYVFYMVVVCNVITIRQNHM` — recorded amyloid nucleation score = 1.49

Entry `TECYLDVHLLHCRCALRSTP` — recorded amyloid nucleation score = 6.83

Entry `LFSMSL` — recorded amyloid nucleation score = -1.27

---

experiment: amyloid nucleation score (Sup35N fusion, yeast selection) (log enrichment); library NNK2; higher = more nucleation; inactive = no reads after selection
Response key: Criterion met means amyloid nucleation score >= 0.2; Criterion not met means amyloid nucleation score < 0.2.

Past entries and their recorded results:
Seq	Category Label
RMDVISEKFVWANESNCGVA	Criterion met
VDMTGCLTGVDVTSLRNIPL	Criterion met
VLSYMFVYETMSEIFTFLVG	Criterion not met
LAIVLRGNFTIVSTAIE	Criterion met
RYLETYHSHACVSFTERN	Criterion met
PVKRQGSSAANVPVVW	Criterion met
IYPDKSFMALFPMVIDFYTQ	Criterion not met
YGFGHRGNMTAWLSMATKTF	Criterion not met

Determine whether measured amyloid nucleation score meets or exceeds 0.2 for `FYHISEVLVVPLRLELSVQL`
Criterion met

Determine whether measured amyloid nucleation score meets or exceeds 0.2 for `LCWFAMLEYVWDGHAVGDSI`
Criterion met

---

Documented amyloid nucleation score across a set of substances
assay: amyloid nucleation score (Sup35N fusion, yeast selection) (log enrichment); library NNK1; higher = more nucleation; inactive = no reads after selection
Lab note: jot the number down without any unit.

Known amyloid nucleation score results, listed for orientation:
Substance	amyloid nucleation score
PWACSTSRSMLPSSSLPALM	0.814
TCFSSILKDMVWRNRRRWGY	0.216
RKSLTGYKYCMKWGTIVAPN	0.745
YIPTCAGDWLQFNYYNLMCW	0.149
VGNNKLFKTPMKDRELMICL	-0.184

Entry `TDPRNNACVFYVCYYTSCWD` — recorded amyloid nucleation score = 0.923

Entry `PCYRLWLVSAWAVTQEFTSW` — recorded amyloid nucleation score = 1.35

Entry `MWYVHHCQGSVTLLARGRLC` — recorded amyloid nucleation score = 0.886

Entry `YSIFTIKGRDCKLFITNNVS` — recorded amyloid nucleation score = 7.47

Entry `GFVTKDWLSVMRYIYQMLTS` — recorded amyloid nucleation score = -0.016

Entry `LGVQFSGRLSVPVYFMWFTL` — recorded amyloid nucleation score = 0.814

Entry `MYPTLRTRPTCIYVR` — recorded amyloid nucleation score = 1.19

Entry `TVYSLYVIDALGFLCTNVML` — recorded amyloid nucleation score = 0.349

Entry `ARMASHRTCLNVYLRLCAYL` — recorded amyloid nucleation score = -0.343

Entry `STCHRSSSTCWKGYVRGLVV` — recorded amyloid nucleation score = 0.004

Entry `YRVVACMGCALRLVWLARYR` — recorded amyloid nucleation score = -0.31

Entry `VFYFYYFDEMCVSSMNRLKL` — recorded amyloid nucleation score = -0.36

Entry `CGLKNFGVLSFRSIDCQRKG` — recorded amyloid nucleation score = -1.48

Entry `GKNWVRPRPGLVTNTKEYES` — recorded amyloid nucleation score = -0.46

Entry `LCKDLAKHHN` — recorded amyloid nucleation score = 4.97

Entry `LAGNVS` — recorded amyloid nucleation score = 0.503

Entry `RFVLWYYDY` — recorded amyloid nucleation score = 3.12

Entry `DNRFERAVWVPHL` — recorded amyloid nucleation score = 3.78

Entry `NFLESSFYFFALVSASLSFN` — recorded amyloid nucleation score = 0.527

---

assay: amyloid nucleation score (Sup35N fusion, yeast selection) (log enrichment); library NNK2; higher = more nucleation; inactive = no reads after selection
Documented amyloid nucleation score across a set of substances

Entry `ADSVYAVRRKAV` — recorded amyloid nucleation score = 0.356

Entry `LWITTGNGGVPV` — recorded amyloid nucleation score = -0.144

Entry `VHFASPRRACRFIRRRYTTH` — recorded amyloid nucleation score = 3.77

Entry `GYLQGLCRG` — recorded amyloid nucleation score = -0.047

Entry `SRTSSKAYTPYFVSRGHDRY` — recorded amyloid nucleation score = -0.903

Entry `LCSCANCLYSFFTG` — recorded amyloid nucleation score = 8.04

---

Documented amyloid nucleation score across a set of substances
test: amyloid nucleation score (Sup35N fusion, yeast selection) (log enrichment); library NNK1; higher = more nucleation; inactive = no reads after selection
Lab note: jot the number down without any unit.

Known amyloid nucleation score results, listed for orientation:
Substance	amyloid nucleation score
DSSLRDKYVTKNVFIFSMSG	4.71
GLWLKLLVDLKHMKIEHPWH	0.933
FMVKHSDDRGYLCFLGIEKV	0.209
TVYGGLWAFSKTICCVSPKR	7.23
LMYKICTLVRRLHLSRYKNM	-1.27
QSVKTQGVVCAVSIYFGGCS	2.39

Entry `IRSLKNPF` — recorded amyloid nucleation score = 0.275

Entry `RSSPHSGWQPVDLKY` — recorded amyloid nucleation score = -1.37

---

test: amyloid nucleation score (Sup35N fusion, yeast selection) (log enrichment); library NNK1; higher = more nucleation; inactive = no reads after selection
just bin them by amyloid nucleation score: lo = under -0.3, mid = from -0.3 up to 0.5, hi = 0.5 and over

Past entries and their recorded results:
Seq	Category Label
IIEIRLNLGAVANLSTYGVM	mid
VDKYIIFIEIYIADSCDTLG	mid
DFIKYAFSWE	lo
VCLVFVFDVSTVPNICCYAT	mid
TIMFLVITIPRFHNDLMVLS	lo
RLSTFSFMVSICTHCLLYTN	hi

Lab note: sort `STFWENIIVFFHGPYHDMHT` into the matching amyloid nucleation score band.
lo

---

assay: amyloid nucleation score (Sup35N fusion, yeast selection) (log enrichment); library NNK3; higher = more nucleation; inactive = no reads after selection
Quantity Kind: amyloid nucleation score

Substance	Value Observed
FCLVLGVWNLVPPGVKSMMQ	0.889
CSLCYETGSICVVSRGEDGL	inactive
VSIHCGRVYDWEGGFGERVN	inactive
RSQDNCR	inactive
QSGTLLGLLHQANYLGYAF	inactive
PVRSPAACGDRLSVRVANME	inactive

Entry `YCETSLLCCCSIPWYLNCIE` — recorded amyloid nucleation score = inactive

Entry `NSVRLCRCEVIGQTIRDHGF` — recorded amyloid nucleation score = inactive

Entry `YFDCNFVW` — recorded amyloid nucleation score = 0.997

Entry `HLSWNSLTDRNVLC` — recorded amyloid nucleation score = inactive

Entry `SFGAKCARGQDSTASVFNNG` — recorded amyloid nucleation score = -0.33

Entry `LVLGWWAIFGVDYGHSSYLL` — recorded amyloid nucleation score = inactive

Entry `MFEIIGHRRMLFIFYNMCYR` — recorded amyloid nucleation score = inactive

Entry `CRSWVPMGGDLHRGWSLANK` — recorded amyloid nucleation score = inactive

Entry `GAIWERLDIREM` — recorded amyloid nucleation score = inactive

Entry `GSYSGM` — recorded amyloid nucleation score = inactive

Entry `CHCIYNQCVGFSVCGCRGFG` — recorded amyloid nucleation score = 2.35

Entry `EDSRLLGC` — recorded amyloid nucleation score = 0.724

Entry `MNNCLSVDKCFHFMLGFSP` — recorded amyloid nucleation score = inactive

Entry `FVERMVLVLV` — recorded amyloid nucleation score = inactive

Entry `SIYLCLYREVSTVWGKRSN` — recorded amyloid nucleation score = inactive

Entry `HHTKILSSYISWVYILITNS` — recorded amyloid nucleation score = inactive

Entry `EIGSHIGDVQHRVFYNVTLV` — recorded amyloid nucleation score = inactive
